Origin of values: patent US20120016010A1

# Tested on: Bach1 mRNA
# assay-procedure: Initial screen: Bach1 mRNA knock-down in human A549 cells (96-well transfection, quantitative RT-PCR)
# Type: cell-based
# conditions-used: Bach1 mRNA, 10 nM siNA, human A549 cells, n = 2, mean ± S.D., normalized to GAPDH and non-targeting control, 24 hrs post-transfection
[invAb] = inverted abasic unit; m = 2'-O-methyl; r = 2'-OH (RNA); f = 2'-fluoro
assay-readout: % KD (%)
# output: bare number, implied unit %

input: // fetch % KD given entry 29974-DC: Bach1 siNA duplex, target site 1739 (mouse); sense B GAGGuGAAGcuGccAuucA TTB (SEQ 97); antisense UGAAuGGcAGcuucAccucUU (SEQ 98) (sense GAGGUGAAGCUGCCAUUCATT; antisense UGAAUGGCAGCUUCACCUCUU; sense: DNA at AGT, 2'-fluoro at CU, [invAb] at 5' end, 3' end, backbone not given here; antisense: sugars from the 5' end rrrmfmmfmmffffmffffmm, backbone not given here)
output: −4.3

input: // fetch % KD given entry 29968-DC: Bach1 siNA duplex, target site 671 (mouse); sense B GcAGAuGAAuucuuGGAAA TTB (SEQ 85); antisense UUUccAAGAAuucAucuGcUU (SEQ 86) (sense GCAGAUGAAUUCUUGGAAATT; antisense UUUCCAAGAAUUCAUCUGCUU; sense: DNA at AGT, 2'-fluoro at CU, [invAb] at 5' end, 3' end, backbone not given here; antisense: sugars from the 5' end rrrffmmmmmfffmfffmfmm, backbone not given here)
output: 28.2
